Values were extracted from patent US20170037028A1.

Entries annotated with measured pIC50
Experimental System: GLUT1 (Homo sapiens)
Sequence (P11166 whole entry, species assumed): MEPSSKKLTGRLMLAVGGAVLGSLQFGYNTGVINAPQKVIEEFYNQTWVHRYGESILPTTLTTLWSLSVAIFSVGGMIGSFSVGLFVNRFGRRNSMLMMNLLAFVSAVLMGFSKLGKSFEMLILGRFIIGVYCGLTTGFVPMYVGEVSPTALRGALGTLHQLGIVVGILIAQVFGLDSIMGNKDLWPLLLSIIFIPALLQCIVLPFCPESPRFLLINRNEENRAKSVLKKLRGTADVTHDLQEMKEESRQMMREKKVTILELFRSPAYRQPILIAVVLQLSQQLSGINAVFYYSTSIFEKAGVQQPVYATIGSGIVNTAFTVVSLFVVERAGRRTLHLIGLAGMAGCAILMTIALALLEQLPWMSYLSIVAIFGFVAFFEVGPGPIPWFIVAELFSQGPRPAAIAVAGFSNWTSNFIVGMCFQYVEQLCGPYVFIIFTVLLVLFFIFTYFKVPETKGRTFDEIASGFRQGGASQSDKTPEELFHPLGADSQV
Experiment Notes: Indirect measurement of GLUT1 activity by quantification of intracellular ATP levels (glucose induced ATP increase)
Assay type: cell-based
Design: endogenous in cells; host or cells: DLD1 or CHO-K1
Measurement Parameters: read-out: IC50 regarding glucose induced ATP increase (GLUT1 inhibition)
Kindly note that pIC50 refers to -log10 of the concentration in mol/L and answer with the value alone.

Cc1nn(Cc2ccc(C(=O)Nc3ccc(N(C)C)cc3)cc2)c(C)c1NC(=O)c1cc(C(F)(F)F)nc2ccc(Br)cc12 [Example 1069] ... 7.70
Cc1nn(Cc2ccc(C#N)cc2)c(C)c1NC(=O)c1cc(C(N)=O)nc2ccc(F)cc12 [Example 228] ... 8.34
Cc1nc(Cn2nc(C)c(NC(=O)c3cc(C(F)(F)F)nc4ccc(Br)cc34)c2C)cs1 [Example 1354] ... 7.31
Cc1nn(Cc2c(F)cccc2F)c(C)c1NC(=O)c1cc(C(N)=O)nc2cc(F)c(Cl)cc12 [Example 1634] ... 8.66
Cc1nn(Cc2ccc(C(=O)NC(CO)CO)cc2)c(C)c1NC(=O)c1cc(C(F)(F)F)nc2ccc(Br)cc12 [Example 1122] ... 7.17

Challenge: Would you mind telling me what pIC50 value was observed for CCOC(=O)c1cc(Cn2nc(C(F)(F)F)c(NC(=O)c3cc(C(N)=O)nc4cc(F)c(Cl)cc34)c2C)on1 [Example 1683] ?
Response given: 6.96

Challenge: Would you mind telling me what pIC50 value was observed for Cc1nn(Cc2cccc(C(C)O)c2)c(C)c1NC(=O)c1cc(C(N)=O)nc2ccccc12 (racemic) [Example 1645] ?
Response given: 6.50

* * *

Experimental System: GLUT1 (Homo sapiens)
Experiment Notes: Indirect measurement of GLUT1 activity by quantification of intracellular ATP levels (glucose induced ATP increase)
Assay type: cell-based
Design: endogenous in cells; host or cells: DLD1 or CHO-K1
Measurement Parameters: read-out: IC50 regarding glucose induced ATP increase (GLUT1 inhibition)
Entries annotated with measured IC50
Respond with a number, then the unit of measure.

Cc1nn(Cc2ccccc2C#N)c(C)c1NC(=O)c1cc(C(N)=O)nc2cc(F)c(F)cc12 [Example 235] ... 10.9 nM

Challenge: Would you mind telling me what IC50 value was observed for Cc1nn(Cc2ccc(F)c(F)c2)c(C)c1NC(=O)c1cc(C(F)(F)F)nc2cc(F)c(F)cc12 [Example 177] ?
Response given: 73.9 nM

Challenge: Would you mind telling me what IC50 value was observed for Cc1nn(Cc2ccc(F)cc2)c(C)c1N(Cc1ccccc1)C(=O)c1cc(C(F)(F)F)nc2ccc(Br)cc12 [Example 200] ?
Response given: 539 nM

Challenge: Would you mind telling me what IC50 value was observed for COc1cc(C(=O)Nc2c(C)nn(Cc3ccccc3C#N)c2C)c2ccccc2n1 [Example 80] ?
Response given: 229 nM

* * *

Entries annotated with measured pIC50
Experimental System: UniProtKB P11166
Experiment Notes: Indirect measurement of GLUT1 activity by quantification of intracellular ATP levels (glucose induced ATP increase)
Assay type: cell-based
Design: endogenous in cells; host or cells: DLD1 or CHO-K1
Measurement Parameters: DLD1 cells; 0.1 mM glucose, 1 μM Rotenone, 15 min; CellTiter-Glo ATP readout; IC50 values standardized to cytochalasin B IC50 values; read-out: IC50 regarding glucose induced ATP increase (GLUT1 inhibition)
Kindly note that pIC50 refers to -log10 of the concentration in mol/L and answer with the value alone.

Check out these entries, answers already filled in.
Cc1nn(CCc2ccc(F)cc2)c(C)c1NC(=O)c1cc(C(F)(F)F)nc2ccc(Br)cc12 ... 7.06
Cc1nn(CC2CCOCC2)c(C)c1NC(=O)c1cc(C(F)(F)F)nc2ccc(Br)cc12 ... 7.23
Cc1c(NC(=O)c2cc(C(N)=O)nc3cc(F)ccc23)c(C(F)(F)F)nn1Cc1ccccc1OC(F)(F)F ... 6.41

Challenge: Would you mind telling me what pIC50 value was observed for Cc1c(NC(=O)c2cc(C(N)=O)nc3cc(F)ccc23)c(C(F)(F)F)nn1Cc1cc(C#N)no1 ?
Response given: 7.05

Challenge: Would you mind telling me what pIC50 value was observed for Cc1ccc2nc(C(N)=O)cc(C(=O)Nc3c(C(F)(F)F)nn(Cc4ccc(C#N)cc4)c3C)c2c1 ?
Response given: 8.15

Challenge: Would you mind telling me what pIC50 value was observed for Cc1c(NC(=O)c2cc(C(N)=O)nc3cc(F)ccc23)c(C(F)(F)F)nn1Cc1ccc(C#N)nn1 ?
Response given: 7.11

Challenge: Would you mind telling me what pIC50 value was observed for COc1ccc2nc(C(N)=O)cc(C(=O)Nc3c(C(F)(F)F)nn(Cc4ccc(C#N)cc4)c3C)c2c1 ?
Response given: 9.52
